System: HepG2
Assay: cell viability relative to DMSO; higher = less toxic
Conditions: 72 h; 1 nM

- compound: "Cc1ccc(C23CNCC2C3)cc1 (stereo not drawn)"
  unitAbbreviation: "%"
  cell viability: 99.7
- compound: "CCCCOc1ccc(OCCCN2CCOCC2)cc1"
  unitAbbreviation: "%"
  cell viability: 97.1
- compound: "CCCCCCCCCCCCCCCC(=O)OC(CC(=O)[O-])C[N+](C)(C)C (stereo not drawn)"
  unitAbbreviation: "%"
  cell viability: 99.3
- compound: "Cc1cc(/C=C/C#N)cc(C)c1Nc1ccnc(Nc2ccc(C#N)cc2)n1"
  unitAbbreviation: "%"
  cell viability: 98.9
- compound: "COc1ccc2ccc(=O)oc2c1CC=C(C)C"
  unitAbbreviation: "%"
  cell viability: 96.5
- compound: "CC(C(=O)O)c1ccc2c(c1)[nH]c1ccc(Cl)cc12 (stereo not drawn)"
  unitAbbreviation: "%"
  cell viability: 103
- compound: "CCCC[C@@H](C=O)NC(=O)[C@H](CC(C)C)NC(=O)OCc1ccccc1"
  unitAbbreviation: "%"
  cell viability: 99.8
- compound: "Cc1cc(-n2c(=O)[nH]c(=O)n(C)c2=O)ccc1Oc1ccc(SC(F)(F)F)cc1"
  unitAbbreviation: "%"
  cell viability: 90.4
- compound: "COc1cc(OC)c(/C=C2/C(=O)Nc3ccccc32)c(OC)c1"
  unitAbbreviation: "%"
  cell viability: 97.5
- compound: "CCN1/C(=C/C(C)=O)Sc2ccc(OC)cc21"
  unitAbbreviation: "%"
  cell viability: 98
- compound: "NC[C@H]1O[C@H](O[C@H]2[C@H](O)[C@@H](O[C@H]3O[C@H](CO)[C@@H](O)[C@H](N)[C@H]3O)[C@H](N)C[C@@H]2N)[C@H](N)C[C@@H]1O"
  unitAbbreviation: "%"
  cell viability: 108
- compound: "O=C(Nc1ccncc1)C(=O)c1cn(Cc2ccc(Cl)cc2)c2ccccc12"
  unitAbbreviation: "%"
  cell viability: 91.6
- compound: "Cc1ccc(-c2ncn(-c3ccc(Nc4nccc(-c5cccc(N6CCOCC6)c5)n4)cc3)n2)cn1"
  unitAbbreviation: "%"
  cell viability: 99.8
